Test system: oat, wild
test_summary: Test C postemergence
Format: in vivo, Avena fatua
condition_context: 500 g ai/ha, postemergence, 10 days, 0 to 100 scale (0 no effect, 100 complete control)
measured_parameter: Plant response rating, Oat, Wild
Just the number, please.

Exercise: So what does the record say about Plant response rating, Oat, Wild for CC(C)(C)c1ncn(-c2cccc(C(=O)N3CC(C(F)(F)F)Oc4c(Cl)cccc43)c2)n1 (stereo not shown) ?
Solution: 0

Exercise: So what does the record say about Plant response rating, Oat, Wild for CC(C)c1ncn(-c2ccc(S(C)(=O)=O)c(C(=O)N3C[C@H](C)Oc4c(Cl)cccc43)c2)n1 ?
Solution: 40

Exercise: So what does the record say about Plant response rating, Oat, Wild for Cc1ncn(-c2ccc(F)c(C(=O)N3C[C@H](C)Oc4c(C)cccc43)c2)n1 ?
Solution: 80

Exercise: So what does the record say about Plant response rating, Oat, Wild for CCc1ncn(-c2cccc(C(=O)N3CC(C(F)(F)F)Oc4c(C)cccc43)c2)n1 (stereo not shown) ?
Solution: 90

Exercise: So what does the record say about Plant response rating, Oat, Wild for CCc1cc(C(=O)N2C[C@H](C)Oc3c(Cl)cccc32)cc(-n2cncn2)c1 ?
Solution: 30

Exercise: So what does the record say about Plant response rating, Oat, Wild for COc1ccc(-n2cnc(C3CC3)n2)cc1C(=O)N1C[C@H](C)Oc2c(Cl)cccc21 ?
Solution: 70

Exercise: So what does the record say about Plant response rating, Oat, Wild for CCOC[C@H]1CN(C(=O)c2cc(-n3cnc(CC)n3)cc3c2OCCO3)c2cccc(Cl)c2O1 ?
Solution: 20
